These measurements were taken from patent US8927500B2.

Provide the reported IC50 of each item.
Target of assay: MDM2 (Homo sapiens)
Sequence (Q00987 1-125): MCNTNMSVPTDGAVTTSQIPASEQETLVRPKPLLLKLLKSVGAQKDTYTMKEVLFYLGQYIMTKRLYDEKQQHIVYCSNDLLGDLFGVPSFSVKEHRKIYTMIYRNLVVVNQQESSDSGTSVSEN
Experiment description: Competitive fluorescence polarization assay for MDM2
Format: binding
Protocol conditions: competitive FP assay, MDM2; read-out: IC50 (MDM2)
Where a SMILES comes first, the peptide text is derived from it. Bridges are numbered along the chain shown (N, C = ends). [ ]: non-standard residue; d: D form. R8 = C=CCCCCCC[C@@](C)(N)C(=O)O; S5 = C=CCCC[C@](C)(N)C(=O)O

Look up IC50 for this compound: CC(=O)N[C@@H](CC(C)C)C(=O)N[C@H](C(=O)N[C@@H](Cc1ccccc1)C(=O)N[C@]1(C)CCCCCCC=CCCC[C@@](C)(C(=O)N[C@@H](CO)C(=O)N[C@@H](C)C(=O)N[C@@H](C)C(N)=O)NC(=O)[C@H](CC2CCC2)NC(=O)[C@H](CCC(N)=O)NC(=O)[C@H](CO)NC(=O)[C@H](Cc2c[nH]c3ccccc23)NC(=O)[C@H](Cc2ccc(O)cc2)NC(=O)[C@H](CCC(=O)O)NC1=O)[C@@H](C)O (single isomer, unassigned) < 10 nM

Same for CC(=O)N[C@@H](CCC(=O)O)C(=O)N[C@H](C(=O)N[C@@H](Cc1ccccc1)C(=O)N[C@]1(C)CCCCCCC=CCCC[C@@](C)(C(=O)N[C@@H](CO)C(=O)N[C@@H](C)C(=O)N[C@@H](C)C(N)=O)NC(=O)[C@H](CC(C)C)NC(=O)[C@H](CCC(N)=O)NC(=O)[C@H](C)NC(=O)[C@H](Cc2c[nH]c3ccccc23)NC(=O)[C@H](Cc2ccc(O)cc2)NC(=O)[C@H](CCC(=O)O)NC1=O)[C@@H](C)O [compound 161] (Ac-ETF[R8]EYWAQL[S5]SAA-NH2; staple 4-11) < 10 nM

Same for CCCC[C@H](NC(=O)[C@H](C)NC(=O)[C@H](C)NC(=O)[C@]1(C)CCCC=CCCCCCC[C@@](C)(NC(=O)[C@H](Cc2ccccc2)NC(=O)[C@@H](NC(=O)[C@H](CC(C)C)NC(=O)CN(C)C)[C@@H](C)O)C(=O)N[C@@H](C)C(=O)N[C@@H](Cc2ccc(O)cc2)C(=O)N[C@@H](Cc2c[nH]c3ccccc23)C(=O)N[C@@H](C)C(=O)N[C@@H](CCC(N)=O)C(=O)N[C@@H](CC(C)C)C(=O)N1)C(=O)N[C@@H](C)C(N)=O (single isomer, unassigned) 10 to 100 nM

Same for CC(=O)N[C@@H](C)C(=O)N[C@@H](C)C(=O)N[C@@H](CC(C)C)C(=O)N[C@H](C(=O)N[C@@H](Cc1ccccc1)C(=O)N[C@]1(C)CCCCCCC=CCCC[C@@](C)(C(=O)N[C@@H](CO)C(=O)N[C@@H](C)C(=O)N[C@@H](C)C(=O)N[C@@H](C)C(=O)N[C@H](C)C(N)=O)NC(=O)[C@H](CC2CCC2)NC(=O)[C@H](CCC(N)=O)NC(=O)[C@H](C)NC(=O)[C@H](Cc2c[nH]c3ccccc23)NC(=O)[C@H](Cc2ccc(O)cc2)NC(=O)[C@H](CCC(=O)O)NC1=O)[C@@H](C)O (single isomer, unassigned) < 10 nM
